system: Disintegrin and metalloproteinase domain-containing protein 17 (Homo sapiens)
procedure.details: Inhibition of TNF-alpha production from LPS stimulated human whole blood.
parameter.measured: IC50 (nM)

(1) Cc1cc(COc2ccc(N3CC[C@H]([C@H](NC(=O)C(C)(C)C)C(=O)NO)C3=O)cc2)c2ccccc2n1
(2) Cc1cc(COc2ccc(N3CC[C@H]([C@@H](C(=O)NO)N(C)C)C3=O)cc2)c2ccccc2n1
(3) Cc1cc(COc2ccc(N3CC[C@H]([C@H](NC(=O)OC(C)(C)C)C(=O)NO)C3=O)cc2)c2ccccc2n1
Sort key = IC50. Sort direction = ascending. Apply to the list above. List the labels according to the requested ordering.
3, 2, 1
(3: 420 nM, 2: 1500 nM, 1: 4950 nM)

* * *

# collection of Ki values tested on 72 kDa type IV collagenase (Homo sapiens)
# Sequence (P08253 whole entry): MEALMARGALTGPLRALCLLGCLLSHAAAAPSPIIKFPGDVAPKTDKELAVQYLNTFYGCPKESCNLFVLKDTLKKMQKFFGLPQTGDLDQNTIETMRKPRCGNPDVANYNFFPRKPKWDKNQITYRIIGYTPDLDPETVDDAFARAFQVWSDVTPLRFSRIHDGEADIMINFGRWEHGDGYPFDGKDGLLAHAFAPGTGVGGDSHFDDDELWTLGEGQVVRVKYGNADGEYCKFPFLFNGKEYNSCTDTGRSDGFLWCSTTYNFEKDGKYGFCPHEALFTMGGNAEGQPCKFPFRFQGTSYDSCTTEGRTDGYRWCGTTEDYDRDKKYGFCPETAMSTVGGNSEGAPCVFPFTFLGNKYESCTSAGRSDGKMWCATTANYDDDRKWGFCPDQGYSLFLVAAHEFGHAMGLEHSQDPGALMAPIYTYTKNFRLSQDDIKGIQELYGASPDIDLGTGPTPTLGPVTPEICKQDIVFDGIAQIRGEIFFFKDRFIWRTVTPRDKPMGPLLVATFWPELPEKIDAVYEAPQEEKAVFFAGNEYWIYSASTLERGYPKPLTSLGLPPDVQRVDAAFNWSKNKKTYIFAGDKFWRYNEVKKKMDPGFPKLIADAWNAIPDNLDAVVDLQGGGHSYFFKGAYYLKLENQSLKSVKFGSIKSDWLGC

1. CCC[C@@H](C(=O)NO)[C@@]1(N)CCN(c2ccc(OCc3cc(C)nc4ccccc34)cc2)C1=O :: > 3 µM

Lookup: Ki / 72 kDa type IV collagenase (Homo sapiens) / "Cc1cc(COc2ccc(N3CC[C@](N)([C@H](C)C(=O)NO)C3=O)cc2)c2ccccc2n1"
> 3 µM

Now try "C[C@@H]([C@H]1CCN(c2ccc(OCc3ccccc3)cc2)C1=O)N(O)C=O" .
> 0.567 µM

Continue with "CCC[C@@H](C(=O)NO)[C@H]1CCN(c2ccc(OCc3cc(C)nc4ccccc34)cc2)C1=O"
> 3 µM

// query: "Cc1cc(COc2ccc(N3CC[C@H]([C@H](N)C(=O)NO)C3=O)cc2)cc(C)n1"
> 3 µM

Try this compound too: "Cc1cc(COc2ccc(N3CC[C@H]([C@H](NC(=O)OC(C)(C)C)C(=O)NO)C3=O)cc2)cc(C)n1"
> 3 µM

* * *

system: Disintegrin and metalloproteinase domain-containing protein 17 (Homo sapiens, UniProt P78536)
Sequence (P78536 whole entry, the tested form may be a part): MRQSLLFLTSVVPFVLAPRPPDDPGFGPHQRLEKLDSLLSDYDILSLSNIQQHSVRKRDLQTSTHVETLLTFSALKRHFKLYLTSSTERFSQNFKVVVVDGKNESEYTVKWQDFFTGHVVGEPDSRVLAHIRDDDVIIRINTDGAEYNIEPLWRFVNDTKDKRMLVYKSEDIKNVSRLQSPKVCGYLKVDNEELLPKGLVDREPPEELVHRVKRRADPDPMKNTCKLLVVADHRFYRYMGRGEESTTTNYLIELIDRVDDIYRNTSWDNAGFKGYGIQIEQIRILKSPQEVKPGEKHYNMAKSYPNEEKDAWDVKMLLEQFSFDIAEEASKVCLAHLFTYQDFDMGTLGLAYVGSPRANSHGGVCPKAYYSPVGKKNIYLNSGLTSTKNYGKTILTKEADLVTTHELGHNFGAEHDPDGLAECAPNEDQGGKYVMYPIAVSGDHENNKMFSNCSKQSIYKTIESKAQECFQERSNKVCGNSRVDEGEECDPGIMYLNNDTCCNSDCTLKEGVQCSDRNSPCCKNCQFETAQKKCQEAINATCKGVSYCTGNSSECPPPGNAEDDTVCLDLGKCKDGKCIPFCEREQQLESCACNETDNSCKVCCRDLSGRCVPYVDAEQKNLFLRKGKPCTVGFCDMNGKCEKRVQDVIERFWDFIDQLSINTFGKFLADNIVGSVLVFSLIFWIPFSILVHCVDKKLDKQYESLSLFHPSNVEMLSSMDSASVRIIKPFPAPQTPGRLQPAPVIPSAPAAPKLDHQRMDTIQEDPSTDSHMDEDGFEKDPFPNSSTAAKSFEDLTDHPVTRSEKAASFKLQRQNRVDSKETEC
procedure.details: Inhibition of TNF-alpha production from LPS stimulated human whole blood.
pIC50: −log10 of the molar value.
# pIC50 per entry

Known pIC50 results, listed for orientation:
1. Cc1cc(COc2ccc(N3CC[C@H]([C@H](N)C(=O)NO)C3=O)cc2)cc(C)n1 :: < 5.00
2. CCC[C@@H](C(=O)NO)[C@@]1(N)CCN(c2ccc(OCc3cc(C)nc4ccccc34)cc2)C1=O :: < 5.00
3. Cc1cc(COc2ccc(N3CC[C@H]([C@H](NC(=O)OC(C)(C)C)C(=O)NO)C3=O)cc2)cc(C)n1 :: < 5.52
4. Cc1cc(COc2ccc(N3CC[C@@]([C@H](C)C(=O)NO)(N(C)C)C3=O)cc2)c2ccccc2n1 :: < 5.52
5. Cc1cc(COc2ccc(N3CC[C@H]([C@@H](C(=O)NO)N4CCCC4)C3=O)cc2)c2ccccc2n1 :: < 5.00

As a next step, examine the compound that follows.
Returns the measured pIC50 for the input compound. Input: "CCC[C@H](C(=O)NO)[C@@]1(N)CCN(c2ccc(OCc3cc(C)nc4ccccc34)cc2)C1=O"
< 5.52
